Biological target: human LH receptor (Homo sapiens, UniProt P22888)
Construct: expressed in transfected cells; host or cells: Chinese Hamster Ovary (CHO) cells, stably transfected; cotransfected with a CRE-luciferase reporter
Sequence (P22888 27-699): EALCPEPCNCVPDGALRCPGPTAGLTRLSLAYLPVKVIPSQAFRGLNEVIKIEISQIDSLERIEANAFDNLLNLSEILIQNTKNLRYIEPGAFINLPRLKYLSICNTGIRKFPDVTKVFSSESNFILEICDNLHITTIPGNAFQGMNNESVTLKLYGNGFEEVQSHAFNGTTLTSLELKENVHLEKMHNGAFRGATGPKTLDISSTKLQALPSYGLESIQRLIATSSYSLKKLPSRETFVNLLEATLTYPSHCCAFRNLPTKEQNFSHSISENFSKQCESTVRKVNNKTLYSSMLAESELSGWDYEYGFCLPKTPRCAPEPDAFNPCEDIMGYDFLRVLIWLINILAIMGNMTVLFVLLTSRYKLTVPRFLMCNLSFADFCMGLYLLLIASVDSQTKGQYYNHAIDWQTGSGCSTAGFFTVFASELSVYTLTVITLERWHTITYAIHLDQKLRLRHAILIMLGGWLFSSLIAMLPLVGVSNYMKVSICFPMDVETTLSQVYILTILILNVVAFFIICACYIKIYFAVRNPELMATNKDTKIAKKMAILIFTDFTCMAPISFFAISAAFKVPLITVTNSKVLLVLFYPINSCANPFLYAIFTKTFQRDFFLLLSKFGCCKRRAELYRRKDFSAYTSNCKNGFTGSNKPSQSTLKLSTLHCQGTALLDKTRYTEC
Assay: CHO-LH in vitro bioactivity (CRE-luciferase reporter, LH agonistic activity)
Format: cell-based
pEC50: −log10 of the molar value.
property.name: pEC50

Recorded pEC50 of CCN(CC)C(=O)Oc1cccc(-c2nc(SC)nc3sc(C(=O)NC(C)(C)C)c(N)c23)c1 , please. > 8.00
